Test system: Fibroblast
method.notes: Multiplex assay against human fibroblast
Type: toxicity, cell-based
measurement.parameters: 48 h, 1 µM, compound concentration 1 uM, replicate 1
Classify: rule met when Population Mitochondria Different-Phenotype (%) is strictly less than 2%; rule not met when Population Mitochondria Different-Phenotype (%) is not.

See these solved cases before continuing.
>>> assigned_class("Cc1nc(Cc2cccc(C(F)(F)F)c2)sc1-c1ccc(C(N)=O)nc1 [TP-024n]")
"rule met"
>>> assigned_class("CNc1oc(-c2cccc3ccccc23)nc1C#N")
"rule not met"
>>> assigned_class("CCC(=O)O[C@]1(C(=O)SCF)[C@H](C)C[C@H]2[C@@H]3C[C@H](F)C4=CC(=O)C=C[C@]4(C)[C@@]3(F)[C@@H](O)C[C@@]21C [FLUTICASONE PROPIONATE]")
"rule met"
>>> assigned_class("CCc1cc2c(cc1CC)CC(NC[C@H](O)c1ccc(O)c3[nH]c(=O)ccc13)C2 [INDACATEROL]")
"rule met"
>>> assigned_class("Nc1ccc(C(=O)Nc2cccc(-c3nc(N4CCOCC4)c4oc5ncccc5c4n3)c2)cn1")
"rule met"

Could you now consider this next compound?
Problem: For this compound, is Population Mitochondria Different-Phenotype (%) lower than 2%? CCn1c(-c2nonc2N)nc2cnc(Oc3cccc(NC(=O)c4ccc(OCCN5CCOCC5)cc4)c3)cc21 [GSK-269962A]
Solution: rule not met

====

Test system: Fibroblast
method.notes: Multiplex assay against human fibroblast
Type: toxicity, cell-based
measurement.parameters: 24 h, 1 µM, compound concentration 1 uM, replicate 1
property.label: Population Apoptotic (%)
The answer is to be given in %; state only the numeric part.

>>> measured_value("Cl.Cl.NC1(c2ccc(-c3nc4ccn5c(=O)[nH]nc5c4cc3-c3ccccc3)cc2)CCC1")
45
>>> measured_value("Nc1nc2c(c(N3CCNCC3)n1)CCC1=C2[C@@H]2CCCC[C@@H]2O1")
55
>>> measured_value("c1ccc2oc(-c3csc(C4CCN(Cc5nc6ncccc6[nH]5)CC4)n3)cc2c1")
50
>>> measured_value("O=C(O)c1ccc2cc(-c3ccc(O)c(C45CC6CC(CC(C6)C4)C5)c3)ccc2c1")
53
>>> measured_value("CNC(=O)c1cc(Oc2ccc(NC(=O)Nc3cc(C(C)(C)C)nn3-c3ccc4ncccc4c3)c(F)c2)ccn1")
83

Problem: What measured Population Apoptotic (%) goes with `Cc1cn(-c2cc(NC(=O)c3ccc4c(c3)CN(c3cncnc3)C[C@@H]4C)cc(C(F)(F)F)c2)cn1` ?
Solution: 92

Problem: What measured Population Apoptotic (%) goes with `COc1cc2c(NC3CCN(C(C)C)CC3)nc(N3CCC(F)(F)CC3)nc2cc1OCCCN1CCCC1` ?
Solution: 65

Problem: What measured Population Apoptotic (%) goes with `CCCn1c(=O)c2[nH]c(C34CC5CC(CC3C5)C4)nc2n(CCC)c1=O` ?
Solution: 31

====

compounds and their reported Population Hoechst High Intensity Objects (%)
System: HEK-293T
method.notes: Multiplex assay against HEK293T
Format: toxicity, cell-based
measurement.parameters: human, 12 h, 10 µM, compound concentration 10 uM, replicate 1
The answer is to be given in %; state only the numeric part.

Answered cases to consult:
>>> measured_value("CCOc1cc2ncc(C#N)c(Nc3ccc(OCc4cccc(F)c4)c(Cl)c3)c2cc1NC(=O)/C=C/CN(C)C")
10
>>> measured_value("Cc1nc(Cc2cccc(C(F)(F)F)c2)sc1-c1ccc(C(N)=O)nc1 [TP-024n]")
12
>>> measured_value("CC(=O)c1cc(-c2cc(C(=O)NC3CC3)ccc2C)c2ncccn12")
15
>>> measured_value("N#Cc1cnc(Nc2cc(NC[C@H]3CNCCO3)c(C(F)(F)F)cn2)cn1")
14

Problem: What measured Population Hoechst High Intensity Objects (%) goes with `Cl.Cl.NC1(c2ccc(-c3nc4ccn5c(=O)[nH]nc5c4cc3-c3ccccc3)cc2)CCC1` ?
Solution: 56
